biological target: Bac-F (UniProt P03420 26-524); assay: BIAcore, Mab vs Bac-F, 1:1
Sequence (P03420 26-524): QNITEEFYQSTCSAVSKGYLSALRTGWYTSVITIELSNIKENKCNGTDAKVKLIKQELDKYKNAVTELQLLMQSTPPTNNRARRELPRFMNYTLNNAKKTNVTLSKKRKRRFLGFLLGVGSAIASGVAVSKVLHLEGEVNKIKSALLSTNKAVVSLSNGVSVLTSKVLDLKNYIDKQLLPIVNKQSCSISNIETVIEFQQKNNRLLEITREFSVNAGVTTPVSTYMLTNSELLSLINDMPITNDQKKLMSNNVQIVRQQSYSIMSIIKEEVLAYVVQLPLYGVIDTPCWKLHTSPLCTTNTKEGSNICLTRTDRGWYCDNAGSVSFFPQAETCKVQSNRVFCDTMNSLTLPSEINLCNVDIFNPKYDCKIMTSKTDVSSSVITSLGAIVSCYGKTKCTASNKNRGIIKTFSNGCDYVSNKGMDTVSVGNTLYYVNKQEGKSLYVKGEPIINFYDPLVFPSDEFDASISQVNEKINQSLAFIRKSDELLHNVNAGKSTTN
A collection of binders and their measured kon
Give just the numeric value; M⁻¹ s⁻¹ need not be written.

Example entries and their recorded answers appear below.
{"binder": "A4B4 (monoclonal antibody) (antibody, V domains shown, also called A4B4/A4B4 (HC/LC)) VH: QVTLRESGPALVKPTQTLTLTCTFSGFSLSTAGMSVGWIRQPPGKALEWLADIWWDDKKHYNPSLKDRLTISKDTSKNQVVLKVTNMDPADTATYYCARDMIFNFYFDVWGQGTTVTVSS VL: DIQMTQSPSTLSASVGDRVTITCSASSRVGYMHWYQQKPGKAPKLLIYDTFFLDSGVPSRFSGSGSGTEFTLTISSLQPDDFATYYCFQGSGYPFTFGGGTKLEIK", "reported.endpoint": "kon", "val": 434000}
{"binder": "P11d4 (monoclonal antibody) (antibody, V domains shown) VH: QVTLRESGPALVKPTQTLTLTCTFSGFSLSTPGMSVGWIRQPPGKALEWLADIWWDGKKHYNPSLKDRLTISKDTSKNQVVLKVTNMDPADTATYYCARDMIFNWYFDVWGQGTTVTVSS VL: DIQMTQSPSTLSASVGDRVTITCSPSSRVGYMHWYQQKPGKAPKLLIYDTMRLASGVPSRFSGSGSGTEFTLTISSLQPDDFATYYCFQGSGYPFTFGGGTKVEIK", "reported.endpoint": "kon", "val": 466000}

Return reported kon; argument: A12a6 (monoclonal antibody) (antibody, V domains shown) VH: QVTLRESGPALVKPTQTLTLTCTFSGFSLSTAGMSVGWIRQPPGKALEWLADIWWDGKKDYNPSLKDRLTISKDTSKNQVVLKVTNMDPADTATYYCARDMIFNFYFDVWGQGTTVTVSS VL: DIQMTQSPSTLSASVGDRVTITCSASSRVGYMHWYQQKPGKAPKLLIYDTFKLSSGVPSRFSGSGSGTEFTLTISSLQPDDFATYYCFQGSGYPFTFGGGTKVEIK
460000
